test: Cytotoxicity against human Hep2 cells assessed as cell survival fraction at 100 ug/ml after 24 hrs by trypan blue exclusion assay (reference value: 97 to 98%); format: cell-based; settings: HEp-2 cells, read-out: Survival
Measured viability at 24 h, 100 ug/ml by item
Answer format: numeric, % implied, no suffix.

Sample records with viability at 24 h, 100 ug/ml:
CC/C(C)=N/Nc1nc(-c2ccc(OC)cc2)cs1
0
CCC(CC)=NNc1nc(-c2ccc(C)cc2)cs1
77
C=CCC/C(C)=N/Nc1nc(-c2ccc(OC)cc2)cs1
0
CCC/C(C)=N/Nc1nc(-c2ccc(OC)cc2)cs1
0
C/C(=N\Nc1nc(-c2ccc(Cl)cc2Cl)cs1)C1CCCCC1
0

Lab note: next compound to report on.
QUERY: I would be grateful if you could share the reported viability at 24 h, 100 ug/ml for Clc1ccccc1C(c1ccccc1)(c1ccccc1)n1ccnc1 .
RESULT: 0
